As shown below, each of these binders has a reported Kd value.
# subject-of-test: equine FcRn (large alpha subunit p51) / equine beta-2-microglobulin complex, biotinylated (equine) (UniProt P30441)
# experiment-notes: SPR (Biacore), pH 6
Kindly answer with a numeric value in nM, unit omitted.

Item under review: equine IgG4 M428I (antibody, part only; not given: variable domains, not shown: another chain or arm of the molecule) constant: ASTTAPKVFPLASHSAATSGSTVALGCLVSSYFPEPVTVSWNSGALTSGVHTFPSVLQSSGLYSLSSMVTVPASSLKSQTYICNVAHPASSTKVDKKIVIKECNGGCPAECLQVGPSVFIFPPKPKDVLMISRTPTVTCVVVDVGHDFPDVQFNWYVDGVETHTATTEPKQEQFNSTYRVVSVLPIQHKDWLSGKEFKCKVNNKALPAPVERTISKPTGQPREPQVYVLAPHRDELSKNKVSVTCLVKDFYPTDIDIEWKSNGQPEPETKYSTTPAQLDSDGSYFLYSKLTVETNRWQQGTTFTCAVIHEALHNHYTEKSVSKSPGK . Reported Kd?
49.5
